# Tested on: HOP-18 NSCLC
# Protocol description: NCI tumour cell line growth inhibition, 48 h
Measure: TGI

| Molecule | Measurement target | TGI |
| --- | --- | --- |
| COc1ccc(N2C(=O)C3C=CC(n4[nH]c(=O)n(Cc5ccccc5)c4=O)CC3C2=O)cc1 (stereo not drawn) | HOP-18 NSCLC | > 100 µM |
| CC(=O)Nc1ccc(C(=O)n2[nH]c(C)c(/C=C3\C(=O)C=Cc4ccccc43)c2=O)cc1 | HOP-18 NSCLC | > 100 µM |

Recorded result, COCC1N=C(c2cc(OC)c(OC)c(OC)c2-c2cc3c(cc2[C@@H](C)O)OCO3)O[C@H]1c1ccccc1 (stereo partly drawn) , TGI: > 100 µM

----------
Provide the recorded TGI for the entries that follow.
# Test system: SK-MEL-28 melanoma
# Protocol description: NCI tumour cell line growth inhibition, 48 h

Example results:
| Compound | Measurement target | TGI |
| --- | --- | --- |
| CC(O)c1ccc(C(O)/C(=N\NC(=O)c2ccncc2)c2nc3ccc([N+](=O)[O-])cc3[nH]c2=O)cc1 (configuration not stated) | SK-MEL-28 melanoma | > 100 µM |
| COCC1N=C(c2cc(OC)c(OC)c(OC)c2-c2cc3c(cc2[C@@H](C)O)OCO3)O[C@H]1c1ccccc1 (some centres not stated) | SK-MEL-28 melanoma | > 100 µM |
| COc1ccc2nc3c([N+](=O)[O-])ccc(NCCCN(C)C)c3c(N)c2c1 | SK-MEL-28 melanoma | 3.04 µM |
| COC1/C=C/OC2(C)Oc3c(C)c(O)c4c(O)c(c(C=NOC(c5ccccc5)c5ccccc5)c(O)c4c3C2=O)NC(=O)/C(C)=C/C=C/C(C)C(O)C(C)C(O)C(C)C(OC(C)=O)C1C (configuration not stated) | SK-MEL-28 melanoma | 2.08 µM |
| C/C(CC(=O)Nc1cccc(C)c1C)=N\NC(N)=S | SK-MEL-28 melanoma | > 100 µM |

Batch of 4 compounds: report TGI for each.
1. Cn1cc(-c2ccc3nnc(C(F)(F)c4ccc5ncccc5c4)n3n2)cn1
2. Nc1nc(Cl)nc2c1ncn2C1OC(CO)C(O)C1O (configuration not stated)
3. C[C@H]1CCC2C(CN3CCCCC3)C(=O)OC2[C@]2(C)C(=O)CC(N3CCCCC3)C12O (some centres not stated)
4. O=c1[nH]c(-c2ccc(Cl)cc2)cc2ccsc12

Result:
1. > 100 µM
2. > 100 µM
3. 32.9 µM
4. > 100 µM

Batch of 4 compounds: report TGI for each.
1. O=c1cc(NNc2cccc(F)c2)[nH]c(=S)[nH]1
2. O=C(CSc1nnc(-c2ccc(N=Cc3ccc(Cl)cc3)cc2)o1)Nc1cccc([N+](=O)[O-])c1
3. CN(C)CCNC(=O)c1cccc2[nH]c(-c3ccc(Cl)cc3)nc12
4. COc1ccc(C=NCCCN=Cc2ccc(OC)cc2O)c(O)c1

Result:
["> 100 µM", "> 100 µM", "31.9 µM", "> 100 µM"]

Batch of 8 compounds: report TGI for each.
1. COC(=O)C1=C(C)NC2=C(C(=O)c3ccccc32)C1c1cn[nH]c1-c1ccccc1 (configuration not stated)
2. Clc1ccc(Nc2ncnc3c2sc2ncccc23)c(Cl)c1
3. NNC(=S)NN/C=C(\C=Nc1ccccc1)[N+](=O)[O-]
4. Cc1cc(N)c2cc(NC(=O)Nc3ccc4nc(C)cc(N)c4c3)ccc2n1
5. CC(=O)Nc1ccc(Cc2ccc3[nH]c(=O)cc(C)c3c2)cc1
6. O=C(Nc1ccc(Cl)cc1)c1cc2ccccc2cc1OP(=O)(O)O
7. O=[P+](O)c1cccnc1
8. Cc1ccc(Cc2n[nH]c(=O)n2N2C(=O)c3ccccc3C2=O)cc1

Result:
> 100 µM
> 100 µM
> 100 µM
> 100 µM
> 100 µM
55.3 µM
> 100 µM
> 100 µM

----------
Provide the recorded TGI for the entries that follow.
# System: 786-0 renal
# Protocol description: NCI tumour cell line growth inhibition, 48 h
Answers are plain numbers, in µM.

Example results:
| Compound | Uom | TGI |
| --- | --- | --- |
| Cc1ccc(S(=O)(=O)OC2CSSCC2OS(=O)(=O)c2ccc(C)cc2)cc1 (configuration not stated) | µM | 25.1 |
| Cc1nc2cc(Nc3nc(Nc4ccc(F)cc4)nc(N4CCCC4)n3)ccc2n1Cc1ccccc1 | µM | 3.46 |

Batch of 2 compounds: report TGI for each.
1. CCCCCCn1c2c(c3c(O)cccc31)C(=O)c1ccccc1-2
2. O=[N+]([O-])c1cccc([I+]c2ccccc2)c1

Result:
1. 32.4
2. 29.9

----------
# Test system: CAKI-1 renal
# Protocol description: NCI tumour cell line growth inhibition, 48 h
Provide the recorded log10(TGI) for the entries that follow.
Heads up, the numbers here are log10 of TGI in µM units.

Example results:
| Compound | log10(TGI) |
| --- | --- |
| COC1=CC(c2ccc[nH]2)=N/C1=C\c1[nH]c(C)c(C)c1CCC(=O)OCc1ccccc1 | 0.32 |
| CCOC(=O)[C@@]12NN=N[C@@H]1[C@H]1CO[C@H](c3ccccc3)N1C2=O | 1.39 |
| CC(=O)N1CCN(CCCCN2c3ccccc3Sc3cc(N=[N+]=[N-])ccc32)CC1 | 1.40 |
| C=CCCCC(O)c1ccc(C(O)c2cnc3ccccc3c2)o1 (stereo not given) | 1.99 |
| O=c1[nH]c(-c2ccc(Cl)cc2)cc2ccsc12 | 0.85 |

We next turn to a different compound, shown below.
log10(TGI) of C[C@H]1CCC2C(CN3CCCCC3)C(=O)OC2[C@]2(C)C(=O)CC(N3CCCCC3)C12O (stereo not given in full) , assay on CAKI-1 renal, is 1.99

----------
# System: MOLT-4 leukemia
# Protocol description: NCI tumour cell line growth inhibition, 48 h
Provide the recorded TGI for the entries that follow.

| Molecule | Measurement target | TGI |
| --- | --- | --- |
| COc1cccc2c1C(=O)c1c(O)c3c(c(O)c1C2=O)CC(O)(C(C)=O)CC3O (stereo not drawn) | MOLT-4 leukemia | 11.3 µM |
| CCOC(=O)Cn1c(=O)[nH]c(=O)c2[nH]cnc21 | MOLT-4 leukemia | > 100 µM |

We next turn to a different molecule, shown below.
Recorded result, c1ccc(N2N=NC3C4CC(C5c6ccccc6C45)C32)cc1 (stereo not drawn) , TGI: 73.4 µM

----------
# System: RXF 393 renal
# Protocol description: NCI tumour cell line growth inhibition, 48 h; in the data active = GI50 below about 0.43 µM; inactive = the rest
Classes to choose from: active, inactive

Ask: Please state the recorded outcome for this compound: Cc1ccnc(NC(c2ccccc2)c2ccc3cccnc3c2O)c1 (stereo not given)
Result: inactive

Ask: Please state the recorded outcome for this compound: CNC(=O)c1cc(Oc2cccc3nc(NC(=O)Nc4ccc(F)cc4F)ccc23)ccn1
Result: inactive

Ask: Please state the recorded outcome for this compound: Clc1ccc(Nc2ncnc3c2sc2ncccc23)c(Cl)c1
Result: active

Ask: Please state the recorded outcome for this compound: COC1=CC(c2ccc[nH]2)=N/C1=C\c1[nH]c(C)c(C)c1CCC(=O)OCc1ccccc1
Result: inactive

Ask: Please state the recorded outcome for this compound: COc1cc(OC)c(/C=C/C(=O)c2c(O)cc(OC)c(C3CCN(C)CC3)c2OC)c(OC)c1
Result: inactive

----------
# System: SF-295 CNS
# Protocol description: NCI tumour cell line growth inhibition, 48 h
Provide the recorded TGI for the entries that follow.

Example results:
| Compound | Measure | Value reported |
| --- | --- | --- |
| N#CC(C#N)C1CN2CCC1CC2 (configuration not stated) | TGI | > 100 µM |
| CCOC(=O)C1=C(O)c2ccc(OC)cc2C(=O)C1=O | TGI | > 100 µM |
| ClCc1ccc(-c2ccc(Cn3cnc4c(Cl)ncnc43)cc2)cc1 | TGI | 4.89 µM |
| O=C1CCc2ccccc2O1 | TGI | > 100 µM |
| O=c1cc(NNc2cccc(F)c2)[nH]c(=S)[nH]1 | TGI | > 100 µM |
| Cc1cc2nc3c4cc([N+](=O)[O-])ccc4n(CCN(C)C)c3nc2cc1C | TGI | 1.79 µM |

Batch of 8 compounds: report TGI for each.
1. C=CCCCC(O)c1ccc(C(O)c2cnc3ccccc3c2)o1 (configuration not stated)
2. COc1cc2nc3n(c(=O)c2cc1OC)CCCCC3
3. CCC1OC2C(CC=C(C)C)=C3OC(C)(O)C(C)(CC)C(=O)C3=C3OC(=O)C=C1C32 (configuration not stated)
4. c1cnc2nc3n(c2c1)CSC3
5. Cc1cc(N(CCC#N)CCC#N)ccc1CC1N=C(c2ccccc2)OC1=O (configuration not stated)
6. O=C(Nc1nc(-c2ccccc2Cl)cs1)c1cc(-c2ccc(Cl)cc2)nc2ccc(Cl)cc12
7. O=C(O)CCCc1cc2c(s1)-c1cccc3cccc-2c13
8. O=C(NCCC1CN(S(=O)(=O)C(F)(F)F)c2ccccc21)OCc1ccccc1 (configuration not stated)

Result:
["> 100 µM", "> 100 µM", "> 100 µM", "> 100 µM", "> 100 µM", "23.3 µM", "> 100 µM", "> 100 µM"]

Batch of 3 compounds: report TGI for each.
1. C/C(CC(=O)Nc1ccc([N+](=O)[O-])cc1)=N\Nc1ccc([N+](=O)[O-])cc1[N+](=O)[O-]
2. COc1c(OC)c(OC)c(-c2cc(=O)c3c(OC)c(OC)c(OC)c(OC)c3o2)c(OC)c1OC
3. C/C(CC(=O)Nc1cccc(C)c1C)=N\NC(N)=S

Result:
1. > 100 µM
2. > 100 µM
3. > 100 µM

These measurements were taken from PubChem BioAssay (NCI).
